system: right atrium preparation; test: Isolated, blood-perfused right atrium preparation, sinus rate (Table 1); set-up: species or system Mongrel dogs; settings: Canis lupus familiaris; dose 100 μg, close-arterial injection; read-out: Right atrium preparation; % increase in sinus rate
Structures can show the parent of a compound that is named as a salt.
# activation at 0.1 mg values compiled below
Write the numeric value and follow it with the unit.

Solved cases (3 shown):
CNC(=N)c1ccc(CCc2ccc(CN)cc2)cc1 [Compound 1, dihydrochloride]; 34.1%
Cl.Cl.N=C(NCCc1ccccc1)c1ccc(CCc2ccc(CN)cc2)cc1 [Compound 5, dihydrochloride]; 17.7%
CNC(=N)c1ccc(OCc2ccc(C=CCN)cc2)c(C(=O)c2ccccc2)c1 [Compound 12, dihydrochloride]; 31.6%

Next compound, please.
Query :: # activation at 0.1 mg lookup, item CN=C(NC)c1ccc(CCc2ccc(CN)cc2[N+](=O)[O-])cc1.Cl.Cl [Compound 18, dihydrochloride]
Result :: 14%

---

tested on: right atrium preparation; assay: Isolated, blood-perfused right atrium preparation, sinus rate (Table 1); design: species or system Mongrel dogs; settings: Canis lupus familiaris; dose 100 μg, close-arterial injection; read-out: Right atrium preparation; % increase in sinus rate
Where a name gives a salt, the structure may show the parent alone.
Below, each entry is listed with its recorded activation at 0.1 mg.
Supply the numeric figure in %, leaving out any unit text.

COc1cc(CN)ccc1CCc1ccc(C(=N)NCCc2ccccn2)cc1.Cl.Cl.Cl [Compound 19, trihydrochloride]; 21.9
CNC(=N)c1ccc(OCc2ccc(CN)cc2)cc1 [Compound 10, dihydrochloride]; 11.6

Query :: Return activation at 0.1 mg measured with right atrium preparation given this molecule: CNC(=N)c1ccc(CCc2ccc(CN)cc2OC)cc1 [Compound 3, dihydrochloride]
Result :: 32.5

Query :: Return activation at 0.1 mg measured with right atrium preparation given this molecule: Cl.Cl.N=C(N)c1ccc(CCc2ccc(CN)cc2)cc1 [Compound 2, dihydrochloride]
Result :: 21.8

Query :: Under right atrium preparation: activation at 0.1 mg value of NCc1ccc(CCc2ccc(C3=NCCN3)cc2)cc1 [Compound 15, dihydrochloride] ?
Result :: 34.7

Query :: Given the entry CC(=O)O.N=C(N)c1ccc(OCc2ccc(CN)cc2)c(C(=O)c2ccccc2)c1 [Compound 9, acetate] , what activation at 0.1 mg was observed with right atrium preparation?
Result :: 15.5

Query :: Give activation at 0.1 mg (right atrium preparation) of the following molecule: CNC(=N)c1ccc(CCc2ccc(CN)cc2[N+](=O)[O-])cc1 [Compound 13, dihydrochloride]
Result :: 35.9

Query :: Requested read-out activation at 0.1 mg, target or system right atrium preparation, entry Br.Br.CN=C(NC)c1ccc(CCc2ccc(CN)cc2)cc1 [Compound 14, dihydrobromide]
Result :: 31.8

Query :: Any idea what activation at 0.1 mg came out for N=C(N)c1ccc(OCc2ccc(CCCN)cc2)c(C(=O)c2ccccc2)c1 [Compound 11, dihydrochloride] on right atrium preparation?
Result :: 71.4

Query :: For the record CNC(=N)c1ccc(CCc2ccc(CN)cc2)c([N+](=O)[O-])c1.Cl.Cl [Compound 16, dihydrochloride] , what value of activation at 0.1 mg is listed for right atrium preparation?
Result :: 29.7

Query :: Enter reported activation at 0.1 mg observed with right atrium preparation for CN=C(NC)c1ccc(CCc2ccc(CN)cc2OC)cc1 [Compound 17, dihydrochloride]
Result :: 14.3

Query :: GET /values?readout=activation at 0.1 mg&system=right atrium preparation&item= CNC(=N)c1ccc(C=Cc2ccc(CN)cc2)cc1 [Compound 7, dihydrochloride]
Result :: 8.3

Query :: Form field: activation at 0.1 mg recorded for COc1cc(CN)ccc1CCc1ccc(C2=NCCN2)cc1 [Compound 20, dihydrochloride] with right atrium preparation (enter value)
Result :: 26.8

Query :: Can you look up activation at 0.1 mg on right atrium preparation for CCCCNC(=N)c1ccc(CCc2ccc(CN)cc2)cc1.Cl.Cl [Compound 4, dihydrochloride] ?
Result :: 30.6

Query :: Quick check: activation at 0.1 mg on right atrium preparation, item CC(=O)O.CC(=O)O.N=C(N)c1ccc(OCc2ccc(CN)cc2)cc1 [Compound 8, diacetate] ?
Result :: 2.2

Query :: Record N=C(NCCc1ccccn1)c1ccc(CCc2ccc(CN)cc2)cc1 [Compound 6, trihydrochloride] : what is its activation at 0.1 mg with right atrium preparation?
Result :: 7.5

---

test system: anesthetized open-chest dogs; assay: Cardiovascular effect in anesthetized open-chest dogs (Table 2); type: in vivo, Mongrel dogs; conditions: Canis lupus familiaris, iv; 0.1 mg/kg, femoral vein; read-out: Increase in aortic flow (%)
Where a name gives a salt, the structure may show the parent alone.
Binning scheme for change in vivo at 0.1 mg/kg: low class: < 6%; middle class: ≥ 6% and < 10%; high class: ≥ 10%

See these solved cases before continuing.
CNC(=N)c1ccc(OCc2ccc(C=CCN)cc2)c(C(=O)c2ccccc2)c1 [Compound 12, dihydrochloride]; middle class
CN=C(NC)c1ccc(CCc2ccc(CN)cc2[N+](=O)[O-])cc1.Cl.Cl [Compound 18, dihydrochloride]; high class
COc1cc(CN)ccc1CCc1ccc(C(=N)NCCc2ccccn2)cc1.Cl.Cl.Cl [Compound 19, trihydrochloride]; middle class

Query :: For this molecule, which bin applies? CCCCNC(=N)c1ccc(CCc2ccc(CN)cc2)cc1.Cl.Cl [Compound 4, dihydrochloride]
Result :: high class

Query :: Into which category would you place CNC(=N)c1ccc(CCc2ccc(CN)cc2)cc1 [Compound 1, dihydrochloride] ?
Result :: high class

Query :: For the record Cl.Cl.N=C(N)c1ccc(CCc2ccc(CN)cc2)cc1 [Compound 2, dihydrochloride] , report the class its change in vivo at 0.1 mg/kg corresponds to.
Result :: high class

Query :: For this molecule, which bin applies? Cl.Cl.N=C(NCCc1ccccc1)c1ccc(CCc2ccc(CN)cc2)cc1 [Compound 5, dihydrochloride]
Result :: low class

Query :: For Br.Br.CN=C(NC)c1ccc(CCc2ccc(CN)cc2)cc1 [Compound 14, dihydrobromide] , which change in vivo at 0.1 mg/kg bin applies?
Result :: middle class

Query :: Which category fits this record: CNC(=N)c1ccc(CCc2ccc(CN)cc2)c([N+](=O)[O-])c1.Cl.Cl [Compound 16, dihydrochloride]
Result :: middle class

Query :: Kindly state the category for this molecule: CNC(=N)c1ccc(CCc2ccc(CN)cc2[N+](=O)[O-])cc1 [Compound 13, dihydrochloride]
Result :: high class

Query :: Band of N=C(NCCc1ccccn1)c1ccc(CCc2ccc(CN)cc2)cc1 [Compound 6, trihydrochloride] ?
Result :: middle class

Query :: Hi, small favor: classify CNC(=N)c1ccc(C=Cc2ccc(CN)cc2)cc1 [Compound 7, dihydrochloride] by its change in vivo at 0.1 mg/kg when you get a moment.
Result :: low class

Query :: Just checking, what class would you give CN=C(NC)c1ccc(CCc2ccc(CN)cc2OC)cc1 [Compound 17, dihydrochloride] here?
Result :: high class

Query :: # classify by change in vivo at 0.1 mg/kg band: N=C(N)c1ccc(OCc2ccc(CCCN)cc2)c(C(=O)c2ccccc2)c1 [Compound 11, dihydrochloride]
Result :: middle class

Query :: Which bin, given its change in vivo at 0.1 mg/kg, does CC(=O)O.N=C(N)c1ccc(OCc2ccc(CN)cc2)c(C(=O)c2ccccc2)c1 [Compound 9, acetate] occupy?
Result :: low class
